Listed below: solubility kinetic values for each entry.
- test method notes: Kinetic aqueous solubility of the compound
- Format: physicochemical
- assay conditions: buffer; read-out: Kinetic_solubility

Looking up CNC(=O)C1CC(=O)C2=C(C1)NC(Nc1nc3ccccc3o1)=NC2c1ccccc1Cl (stereo not drawn) , I found its solubility kinetic recorded as < 1 µg/mL

Looking up CC1=C(C(=O)Nc2cc(C(=O)O)ccn2)C(c2ccccc2Cl)N=C(Nc2nc3cccc(F)c3o2)N1 (stereo not drawn) , I found its solubility kinetic recorded as > 77 µg/mL

Looking up CC1=C(C(=O)NCc2cncs2)C(c2ccccc2Cl)N=C(Nc2nc3ccccc3o2)N1 (stereo not drawn) , I found its solubility kinetic recorded as < 1 µg/mL

----------
- test method notes: Permeability of compound by PAMPA assay
- Type: ADME
- assay conditions: read-out: permeability
outcome measure: Papp

Looking up CC1=C(C(=O)Nc2cccc(C(=O)O)c2)C(c2ccccc2Cl)N=C(Nc2nc3ccccc3o2)N1 (stereo not drawn) , I found its Papp recorded as < 1 ×10⁻⁶ cm/s

Looking up CC1=C(C(=O)Nc2cc(C(=O)O)ccn2)C(c2ccccc2Cl)N=C(Nc2nc3ccc(Cl)cc3o2)N1 (stereo not drawn) , I found its Papp recorded as < 10 ×10⁻⁶ cm/s

Looking up CC1=C(C(=O)Nc2nnc(-c3cccnc3)s2)C(c2ccccc2Cl)N=C(Nc2nc3cc(Cl)ccc3o2)N1 (stereo not drawn) , I found its Papp recorded as < 3.4 ×10⁻⁶ cm/s

Looking up CC1=C(C(=O)Nc2cc(C(=O)O)ccn2)C(c2ccccc2Cl)N=C(Nc2nc3cc(C)ccc3o2)N1 (stereo not drawn) , I found its Papp recorded as < 1 ×10⁻⁶ cm/s

Looking up CC1=C(C(=O)Nc2cc(C(=O)O)ccn2)[C@H](c2ccccc2Cl)N=C(Nc2nc3ccc(F)cc3o2)N1 , I found its Papp recorded as < 1 ×10⁻⁶ cm/s

Looking up COc1ccc([C@@H]2N=C(Nc3nc4cccc(N)c4o3)NC(C)=C2C(=O)Nc2cc(C(=O)O)ccn2)c(Cl)c1 , I found its Papp recorded as < 1 ×10⁻⁶ cm/s

Looking up CC1=C(C(=O)Nc2nnc(-c3cccnc3)s2)C(c2ccccc2Cl)N=C(Nc2nc3ccc(Cl)cc3o2)N1 (stereo not drawn) , I found its Papp recorded as < 10.3 ×10⁻⁶ cm/s

Looking up CC1=C(C(=O)Nc2cc(C(=O)O)ccn2)C(c2ccccc2Br)N=C(Nc2nc3ccc(F)cc3o2)N1 (stereo not drawn) , I found its Papp recorded as < 10 ×10⁻⁶ cm/s

Looking up CC1=C(C(=O)Nc2cc(C(=O)O)ccn2)C(c2ccc(C)cc2Cl)N=C(Nc2nc3c(o2)CCCC3)N1 (stereo not drawn) , I found its Papp recorded as < 1.8 ×10⁻⁶ cm/s

Looking up CC1=C(C(=O)NCc2nc3ccccc3n2C)C(c2ccccc2Cl)N=C(Nc2nc3ccccc3o2)N1 (stereo not drawn) , I found its Papp recorded as < 10 ×10⁻⁶ cm/s

Others:
Looking up CC1=C(C(=O)Nc2cc(C(=O)O)ccn2)C(c2ccc(-c3ccc(C(F)(F)F)nc3)cc2Cl)N=C(Nc2nc3ccc(F)cc3o2)N1 (stereo not drawn) , I found its Papp recorded as < 1 ×10⁻⁶ cm/s

Looking up CC1=C(C(=O)Nc2ccc(-n3cccn3)cc2)C(c2ccccc2Cl)N=C(Nc2nc3ccccc3o2)N1 (stereo not drawn) , I found its Papp recorded as < 11.8 ×10⁻⁶ cm/s

Looking up CC1=C(C(=O)Nc2cccc(-c3nnn[nH]3)c2)C(c2ccccc2Cl)N=C(Nc2nc3ccccc3o2)N1 (stereo not drawn) , I found its Papp recorded as 5 ×10⁻⁶ cm/s

Looking up CC1=C(C(=O)Nc2nncs2)C(c2ccc(C)cc2Cl)N=C(Nc2nc3ccccc3o2)N1 (stereo not drawn) , I found its Papp recorded as < 14.4 ×10⁻⁶ cm/s
